measurement_notes: Primary screening of photostability of the CyNA library (time-course fluorescence, 8 h)
Format: physicochemical
assay_conditions: 10 μM in HEPES 100 mM pH 7.4, 2% DMSO
experimental_endpoint: max RFU, maximum relative fluorescence units
Respond numerically, and do not add a unit to the figure.

CCCN1/C(=C/C=C2\CCCC(/C=C/C3=[N+](CCC)c4ccccc4C3(C)C)=C2N(Cc2ccccc2)C(C)=O)C(C)(C)c2ccccc21    1224.6
CCCN1/C(=C/C=C2\CCCC(/C=C/C3=[N+](CCC)c4ccccc4C3(C)C)=C2N(Cc2ccco2)C(C)=O)C(C)(C)c2ccccc21    709.2
CCCN1/C(=C/C=C2\CCCC(/C=C/C3=[N+](CCC)c4ccccc4C3(C)C)=C2N(Cc2ccc(F)cc2F)C(C)=O)C(C)(C)c2ccccc21    775.5
CCCN1/C(=C/C=C2\CCCC(/C=C/C3=[N+](CCC)c4ccccc4C3(C)C)=C2N(CCC(C)(C)C)C(C)=O)C(C)(C)c2ccccc21    420.2
CCCN1/C(=C/C=C2\CCCC(/C=C/C3=[N+](CCC)c4ccccc4C3(C)C)=C2N(Cc2cccc(F)c2F)C(C)=O)C(C)(C)c2ccccc21    555.4

What max RFU, maximum relative fluorescence units value was documented for this compound, `CCCN1/C(=C/C=C2\CCCC(/C=C/C3=[N+](CCC)c4ccccc4C3(C)C)=C2N(Cc2ccc(OC)c(OC)c2)C(C)=O)C(C)(C)c2ccccc21` ?
578.6

Try the compound `CCCCCN(C(C)=O)C1=C(/C=C/C2=[N+](CCC)c3ccccc3C2(C)C)CCC/C1=C\C=C1\N(CCC)c2ccccc2C1(C)C`
835.2

Try the compound `CCCN1/C(=C/C=C2\CCCC(/C=C/C3=[N+](CCC)c4ccccc4C3(C)C)=C2N(CCCCc2ccccc2)C(C)=O)C(C)(C)c2ccccc21`
259.8

====

measurement_notes: Absorbance and fluorescence maximum wavelengths and quantum yields of the CyNA library
Format: physicochemical
assay_conditions: CyNA library
experimental_endpoint: λabs, absorbance maximum wavelength (nm)
Give a bare numeral; the unit nm is implied.

Some solved cases for reference:
CCCN1/C(=C/C=C2\CCCC(/C=C/C3=[N+](CCC)c4ccccc4C3(C)C)=C2N(CCc2ccc(OC)cc2)C(C)=O)C(C)(C)c2ccccc21    804
CCCN1/C(=C/C=C2\CCCC(/C=C/C3=[N+](CCC)c4ccccc4C3(C)C)=C2N(CC(c2ccccc2)c2ccccc2)C(C)=O)C(C)(C)c2ccccc21    804

What λabs, absorbance maximum wavelength value was documented for this molecule, `CCCN1/C(=C/C=C2\CCCC(/C=C/C3=[N+](CCC)c4ccccc4C3(C)C)=C2N(Cc2cccc(F)c2F)C(C)=O)C(C)(C)c2ccccc21` ?
805

====

measurement_notes: Primary screening of photostability of the CyNA library (time-course fluorescence, 8 h)
Assay type: physicochemical
assay_conditions: 10 μM in HEPES 100 mM pH 7.4, 2% DMSO
Measured max RFU, maximum relative fluorescence units values are reported for all entries that follow.
Respond numerically, and do not add a unit to the figure.

Some solved cases for reference:
CCCN1/C(=C/C=C2\CCCC(/C=C/C3=[N+](CCC)c4ccccc4C3(C)C)=C2N(CCCN2CCCC2=O)C(C)=O)C(C)(C)c2ccccc21 [CyNA-11]    1250.1
CCCN1/C(=C/C=C2\CCCC(/C=C/C3=[N+](CCC)c4ccccc4C3(C)C)=C2N(Cc2cccc(Cl)c2)C(C)=O)C(C)(C)c2ccccc21 [CyNA-403]    261.6

Turning to the following compound.
What max RFU, maximum relative fluorescence units value was documented for this compound, CCCN1/C(=C/C=C2\CCCC(/C=C/C3=[N+](CCC)c4ccccc4C3(C)C)=C2N(Cc2cccc3ccccc23)C(C)=O)C(C)(C)c2ccccc21 [CyNA-542] ?
442.7
